From: patent US20250145608A1

# TESTED SYSTEM: KRAS4B G12D (Homo sapiens, UniProt P01116, G12D)
# Construct: HiBit; expressed in transfected cells; host or cells: GP5d cells (ECACC 95090715), stably transduced with lentivirus, CMV promoter
# Sequence (P01116 1-188 isoform P01116-2 G12D): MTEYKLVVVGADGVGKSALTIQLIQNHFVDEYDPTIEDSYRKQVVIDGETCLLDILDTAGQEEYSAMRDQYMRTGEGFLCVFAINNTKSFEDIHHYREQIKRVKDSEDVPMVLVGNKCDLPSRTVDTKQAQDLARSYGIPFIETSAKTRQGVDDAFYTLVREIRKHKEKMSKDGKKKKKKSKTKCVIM
# ASSAY NOTES: HiBit KRAS4B mutant spectrum degradation assay, KRAS4B G12D in GP5d cells (18 h)
# Type: cell-based
# EXPERIMENTAL CONTEXT: KRAS mutation G12D
Quick reference: DC50 of the listed items.
Give your result in nM as a bare value.

Known results for compounds:
Input: Which DC50 value belongs to Cc1ncsc1-c1ccc([C@H](CO)NC(=O)[C@@H]2C[C@@H](O)CN2C(=O)[C@H](C(C)C)n2cc(OC(C)CCCN3CCCN(c4nccc(-c5noc([C@@]6(C)CCCc7sc(N)c(C#N)c76)n5)n4)[C@@H](C)C3)nn2)cc1 (stereo partly shown) ?
Output: 3.3

Input: May I ask what DC50 has been recorded for Cc1ncsc1-c1ccc([C@@H](NC(=O)[C@@H]2C[C@@H](O)CN2C(=O)[C@H](C(C)C)n2cc(OCCCCN3CCCN(c4nccc(-c5noc([C@@]6(C)CCCc7sc(N)c(C#N)c76)n5)n4)[C@@H](C)C3)nn2)[C@H](C)O)cc1 (single isomer, unassigned) ?
Output: 1.3

Input: // DC50 lookup, key: Cc1ncsc1-c1ccc([C@H](CO)NC(=O)[C@@H]2C[C@@H](O)CN2C(=O)[C@H](C(C)C)n2cc(OCCCC(C)N3CCCN(c4nccc(-c5noc([C@@]6(C)CCCc7sc(N)c(C#N)c76)n5)n4)[C@@H](C)C3)nn2)cc1 (stereo partly shown)
Output: 0.8

Could you now consider this next compound?
Input: Would you kindly share the measured DC50 for Cc1ncsc1-c1ccc([C@H](CO)NC(=O)[C@@H]2C[C@@H](O)CN2C(=O)[C@H](C(C)C)n2cc(OCCCCN3CCCN(c4nccc(-c5noc([C@@]6(C)CCCc7sc(N)c(C#N)c76)n5)n4)[C@@H](C)C3)nn2)cc1 ?
Output: 1.5
